biological target: HLA-A*30:02; assay: IEDB peptide-MHC binding, purified MHC/competitive/radioactivity; filed as Kd, often an IC50 or EC50 that approximates it; bounds were set here for any values at or beyond the usual limits of such assays; settings: source organism: SARS coronavirus Tor2
pKd: −log10 of the molar value.
So basically: pKd at 7 or higher? That is 1. Lower than 7? That is -1.

## Input pKd >= 7 for `QWNLVIGFLF` ?
## Output -1

## Input pKd >= 7 for `AYATAQEAY` ?
## Output 1

## Input pKd >= 7 for `TMADLVYAL` ?
## Output -1

## Input pKd >= 7 for `CKSKNPLLY` ?
## Output -1

## Input pKd >= 7 for `MYLKLRSETL` ?
## Output -1

## Input pKd >= 7 for `ATVAYFNMVY` ?
## Output -1

## Input pKd >= 7 for `SYEHQTPFEI` ?
## Output -1

## Input pKd >= 7 for `NYMPYVFTL` ?
## Output -1

## Input pKd >= 7 for `TCDWTNAGDY` ?
## Output -1

## Input pKd >= 7 for `GAEHVDTSY` ?
## Output -1

## Input pKd >= 7 for `LYLYALIYFL` ?
## Output -1

## Input pKd >= 7 for `TQDLFLPFY` ?
## Output 1

## Input pKd >= 7 for `FMMSRRRLL` ?
## Output -1

###

molecular target: HLA-B*48:01; test: IEDB peptide-MHC binding, purified MHC/direct/fluorescence; filed as Kd, often an IC50 or EC50 that approximates it; bounds were set here for any values at or beyond the usual limits of such assays; conditions: source organism: Mycobacterium tuberculosis
Give measured Kd for each item. Keep answers brief.

## Input What value of measured Kd is listed for `YPARVKCAL` ?
## Output ≥ 20 µM

## Input What value of measured Kd is listed for `RPRCAYLPF` ?
## Output ≥ 20 µM

###

molecular target: HLA-A*03:01; experiment: IEDB peptide-MHC binding, purified MHC/competitive/fluorescence; filed as Kd, often an IC50 or EC50 that approximates it; bounds were set here for any values at or beyond the usual limits of such assays; settings: source organism: Cryptosporidium parvum Iowa II
ENDPOINT LABEL: Kd

## Input Could you share what Kd was measured for `LTAPCDIYV` , tested on HLA-A*03:01?
## Output ≥ 20 µM

###

target: HLA-A*23:01; assay: IEDB peptide-MHC binding, purified MHC/competitive/radioactivity; filed as Kd, often an IC50 or EC50 that approximates it; bounds were set here for any values at or beyond the usual limits of such assays; settings: source organism: Mammarenavirus machupoense
ENDPOINT LABEL: Kd

## Input What value of measured Kd is listed for `LSSSEPHCA` ?
## Output ≥ 60.9 µM

###

target: HLA-B*57:01; assay: IEDB peptide-MHC binding, purified MHC/competitive/fluorescence; filed as Kd, often an IC50 or EC50 that approximates it; bounds were set here for any values at or beyond the usual limits of such assays; conditions: source organism: Giardia intestinalis ATCC 50581
ENDPOINT LABEL: Kd

## Input What value of measured Kd is listed for `GLYLYRFHV` ?
## Output ≥ 20 µM

###

target: HLA-B*40:01; assay: IEDB peptide-MHC binding, purified MHC/direct/fluorescence; filed as Kd, often an IC50 or EC50 that approximates it; bounds were set here for any values at or beyond the usual limits of such assays; settings: source organism: Camelpox virus M-96
pKd: −log10 of the molar value.
ENDPOINT LABEL: pKd

## Input Could you share what pKd was measured for `IHIPGDTLF` , tested on HLA-B*40:01?
## Output ≤ 4.70

## Input Could you share what pKd was measured for `SLFTEQAFY` , tested on HLA-B*40:01?
## Output ≤ 4.70
